Measured values drawn from PubChem BioAssay (NCI) for this set.

Assay: NCI Yeast Anticancer Drug Screen. Data for the cln2 rad14 strain (AID 165);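 further: 0% = growth equal to vehicle treated cultures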
Conditions: S. cerevisiae cln2 rad14 strain, at 50.0 µM (retest, dose inferred, filed as 5.0), stronger effect = higher value
The panel holds about 79,000 compounds, 15% with a hit somewhere; the sample as a whole holds those more often.
# growth inhibition listing for each entry below
OBSERVATION_TYPE: growth inhibition (%)

• COc1c[c]([Hg][O]C(C)=O)c(OC)c(NC(=O)CC(C)=O)[c]1[Hg][O]C(C)=O = 96
• CCOP(=S)(OCC)SSSP(=S)(OCC)OCC = 20
• C[CH2][Sn]([O][Sn]([Cl])([CH2]C)[c]1ccccc1)[c]1ccccc1 (configuration not stated) = 96
• CN1C2CCC1c1c([nH]c3ccccc13)C2 (configuration not stated) = -3
• NC[CH2][Sn]([c]1ccccc1)([CH]1CCCCC1)[CH]1CCCCC1 = 98
• CC/C=C/c1cc2c(cc1O)CCC1C2CC[C@@]2(C)C1CC[C@@H]2O (some centres not stated) = 98
• CC[PH+](CC)CC.[Cl][Au] = 99
• COc1cc(C(CC(=O)N(CCCl)CCCl)c2ccc3c(c2)OCO3)cc(OC)c1OC (configuration not stated) = -15
• Oc1c(Cl)cc(Cl)c2ccccc12 = 14
• Cc1ccc(S(=O)(=O)N=S(=O)(CCCl)CCCl)cc1 = 94
• COC1OC(CO)C(O)C(O)[CH]1[Hg][Cl] (configuration not stated) = 99
• CCN1CCC(O)(c2ccc(Cl)cc2)C(C(=O)c2ccc(Cl)cc2)C1 (configuration not stated) = 93
